target-or-system: human CCR2 (Homo sapiens)
Sequence (P41597 whole entry): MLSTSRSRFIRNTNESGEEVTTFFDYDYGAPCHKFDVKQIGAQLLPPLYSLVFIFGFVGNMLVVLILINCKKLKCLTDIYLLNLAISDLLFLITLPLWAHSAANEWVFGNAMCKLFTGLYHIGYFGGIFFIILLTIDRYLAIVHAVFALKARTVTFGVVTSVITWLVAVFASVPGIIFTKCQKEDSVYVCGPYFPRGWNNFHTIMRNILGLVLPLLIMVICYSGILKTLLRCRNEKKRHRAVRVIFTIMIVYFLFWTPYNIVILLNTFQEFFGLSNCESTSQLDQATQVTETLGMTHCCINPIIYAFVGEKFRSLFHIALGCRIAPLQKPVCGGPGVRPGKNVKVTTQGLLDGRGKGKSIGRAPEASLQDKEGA
assay-comment: CCR2 binding assay ([125I]-MCP-1 displacement, SPA)
Parameters: expressed in transfected cells; host or cells: HEK293 EBNA cells (membrane preparation)
condition-summary: human CCR2-HEK293 EBNA membranes
measure-name: Ki

[
  {
    "compound": "CC(C)c1nc2ccnn2c(O)c1Cc1ccc(F)c(Cl)c1 [Example 37]",
    "result": "< 10 nM"
  },
  {
    "compound": "CCOC(=O)c1nc2ccnn2c(O)c1Cc1ccc(Cl)c(Cl)c1 [Example 72]",
    "result": "10 to 100 nM"
  },
  {
    "compound": "CC(C)c1nc2ccnn2c(O)c1Cc1ccc(F)c(C(F)(F)F)c1 [Example 40]",
    "result": "100 to 1000 nM"
  },
  {
    "compound": "Oc1c(Cc2cccc(Cl)c2)c(C2CC2)nc2ccnn12 [Example 21]",
    "result": "10 to 100 nM"
  },
  {
    "compound": "CCCc1nc2ccnn2c(O)c1Cc1ccc(C(F)(F)F)c(F)c1 [Example 16]",
    "result": "100 to 1000 nM"
  }
]

For the compound shown here, Oc1c(Oc2ccc(Br)cc2)c(C2CC2)nc2ccnn12 [Example 65] , give the reported Ki.
100 to 1000 nM
